tested on: Human prostate cancer cell lines (PC3s); assay: PC3 Proliferation Assay (hemocytometer count, trypan blue); assay type: cell-based; conditions: 24 hours, cell count normalized to DMSO control, concentration not given
Tag: true (1) if measured Average of Growth [%] is not below 4%, false (0) if it is.

QUERY: Please check the record CC(C)N1C(=O)NC(=O)C(C)(N2C(=O)c3c(F)c(F)c(F)c(F)c3C2=O)C1=O (racemic) [Compound 19c] and state if its Average of Growth [%] is at or above 4%.
RESULT: false (0)

QUERY: Please check the record CCCN1C(=O)NC(=O)C(C)(N2C(=O)c3c(F)c(F)c(F)c(F)c3C2=O)C1=O (racemic) [Compound 19b] and state if its Average of Growth [%] is at or above 4%.
RESULT: false (0)

QUERY: Please check the record CC1(NC(=O)c2cc(F)c(F)c(F)c2F)C(=O)NC(=O)N(C2CCCCC2)C1=O (racemic) [Compound 20h] and state if its Average of Growth [%] is at or above 4%.
RESULT: true (1)

QUERY: Please check the record CCC1(N2C(=O)c3c(F)c(F)c(F)c(F)c3C2=O)C(=O)NC(=O)N(C(C)C)C1=O (racemic) [Compound 19g] and state if its Average of Growth [%] is at or above 4%.
RESULT: false (0)

QUERY: Please check the record CCCN1C(=O)NC(=O)C(CC)(NC(=O)c2cc(F)c(F)c(F)c2F)C1=O (racemic) [Compound 20e] and state if its Average of Growth [%] is at or above 4%.
RESULT: true (1)

QUERY: Please check the record CCC1(NC(=O)c2cc(F)c(F)c(F)c2F)C(=O)NC(=O)N(C(C)C)C1=O (racemic) [Compound 20g] and state if its Average of Growth [%] is at or above 4%.
RESULT: true (1)
